Would you mind telling me the reported EC50 of each entry?
assay system: UniProtKB P21554
Sequence (P21554 whole entry): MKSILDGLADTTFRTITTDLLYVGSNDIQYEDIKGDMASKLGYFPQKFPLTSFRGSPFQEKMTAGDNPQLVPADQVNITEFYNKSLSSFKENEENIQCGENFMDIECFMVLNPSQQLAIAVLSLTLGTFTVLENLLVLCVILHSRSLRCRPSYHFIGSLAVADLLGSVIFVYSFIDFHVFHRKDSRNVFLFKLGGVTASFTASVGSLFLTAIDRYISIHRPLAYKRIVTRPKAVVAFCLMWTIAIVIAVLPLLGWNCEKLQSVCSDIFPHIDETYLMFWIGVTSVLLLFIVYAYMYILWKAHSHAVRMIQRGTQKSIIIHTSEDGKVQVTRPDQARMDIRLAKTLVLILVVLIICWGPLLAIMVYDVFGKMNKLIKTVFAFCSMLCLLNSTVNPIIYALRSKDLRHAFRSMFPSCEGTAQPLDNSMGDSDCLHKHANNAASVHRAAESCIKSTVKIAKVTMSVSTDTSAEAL
protocol details: Cyclic AMP assay (HTRF), CHO cells expressing human CB1

Measured EC50 (UniProtKB P21554), entry `O=C(NCC1CCOCC1)c1nc(-c2cccnc2)n2ccccc12` : > 17 µM

Measured EC50 for this entry O=C(NC12CC3CC(CC(C3)C1)C2)c1nc(C(O)c2cccnc2)n2ccccc12 (stereo not drawn) on UniProtKB P21554: > 17 µM

Field EC50 (UniProtKB P21554), entry CC(NC(=O)c1nc(Cl)c2ccccn12)c1ccccc1Cl (stereo not drawn) : > 17 µM
